Where do these numbers come from? They come from the supplement of paper PMC10567573.

B1: COX4I1 (parent)
chain: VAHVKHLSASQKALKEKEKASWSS

# Variants of: B1
# experiment: protein stability index of a GFP-peptide fusion (GPS, HEK-293T) (PSI 1-6); higher = more stable;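 also: lentivirally expressed fusions sorted by FACS into six bins by GFP to DsRed ratio, PSI derived from sequencing read proportions per bin multiplied by bin number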
# measurementContext: c terminus: a fixed tail appended
Rule: protein stability index of 3 or more gives fulfilled; anything lower gives not fulfilled.

>  <mutantLabel>
L7K

>  <labelValue>
fulfilled

$$$$
>  <mutantLabel>
V4S

>  <labelValue>
fulfilled

$$$$
>  <mutantLabel>
V1F

>  <labelValue>
not fulfilled

$$$$
>  <mutantLabel>
V4H

>  <labelValue>
fulfilled

$$$$
>  <mutantLabel>
E16A

>  <labelValue>
fulfilled

$$$$
>  <mutantLabel>
K12G

>  <labelValue>
not fulfilled

$$$$
>  <mutantLabel>
S24E

>  <labelValue>
not fulfilled

$$$$
>  <mutantLabel>
A13Q

>  <labelValue>
not fulfilled

$$$$
>  <mutantLabel>
K5S

>  <labelValue>
fulfilled

$$$$
>  <mutantLabel>
A20D

>  <labelValue>
fulfilled

$$$$
